Biological target: hERG (Homo sapiens)
Construct: expressed in transfected cells; host or cells: HEK-293 cells
Sequence (Q12809 whole entry): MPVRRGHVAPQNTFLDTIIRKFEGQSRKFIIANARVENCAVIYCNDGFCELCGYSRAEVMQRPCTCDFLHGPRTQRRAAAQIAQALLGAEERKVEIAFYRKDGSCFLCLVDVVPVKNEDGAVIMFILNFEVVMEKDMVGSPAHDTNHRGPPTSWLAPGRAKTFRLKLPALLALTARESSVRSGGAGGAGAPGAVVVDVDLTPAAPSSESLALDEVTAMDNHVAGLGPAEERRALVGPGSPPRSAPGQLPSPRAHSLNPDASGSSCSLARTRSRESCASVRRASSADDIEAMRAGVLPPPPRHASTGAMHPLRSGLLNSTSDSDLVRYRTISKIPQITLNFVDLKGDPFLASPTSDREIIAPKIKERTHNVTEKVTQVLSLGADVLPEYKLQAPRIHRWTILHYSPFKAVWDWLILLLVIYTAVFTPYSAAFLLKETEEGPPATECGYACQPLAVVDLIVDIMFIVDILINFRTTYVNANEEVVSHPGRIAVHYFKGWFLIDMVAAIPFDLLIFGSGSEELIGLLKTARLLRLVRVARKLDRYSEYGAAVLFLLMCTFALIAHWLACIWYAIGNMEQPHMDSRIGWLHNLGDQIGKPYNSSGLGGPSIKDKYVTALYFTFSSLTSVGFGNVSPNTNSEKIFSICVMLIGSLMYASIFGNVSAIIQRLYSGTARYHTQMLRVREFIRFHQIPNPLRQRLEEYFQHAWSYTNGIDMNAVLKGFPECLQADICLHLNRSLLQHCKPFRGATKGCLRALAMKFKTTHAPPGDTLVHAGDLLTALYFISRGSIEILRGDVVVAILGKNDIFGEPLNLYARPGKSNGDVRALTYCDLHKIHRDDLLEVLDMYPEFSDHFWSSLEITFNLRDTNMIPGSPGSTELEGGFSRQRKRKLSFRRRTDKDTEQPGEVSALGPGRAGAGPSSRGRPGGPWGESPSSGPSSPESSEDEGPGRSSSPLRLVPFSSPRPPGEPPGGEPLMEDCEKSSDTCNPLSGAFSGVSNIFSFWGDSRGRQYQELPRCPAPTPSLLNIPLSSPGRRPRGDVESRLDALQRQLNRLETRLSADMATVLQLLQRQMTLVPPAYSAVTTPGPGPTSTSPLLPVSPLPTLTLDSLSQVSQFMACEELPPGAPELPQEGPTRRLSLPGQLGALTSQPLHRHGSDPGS
Experiment: Binding hERG (membrane preparation) (aa)
Conditions: read-out: % Inhibition of Control Specific Binding @ 10 μM
Measured inhibition at 10 µM of individual entries
ASSAY READOUT: inhibition at 10 µM

CC1(C)C(=O)N(c2ccc(C#N)c(C(F)(F)F)c2)C(=S)N1c1ccc(C(N)=O)c(F)c1 | 7%
CC1(C)C(=O)N(c2ccc(C#N)c(C(F)(F)F)c2)C(=O)N1c1ccc(C(N)=O)c(F)c1 | 8%
CNC(=O)c1ccc(N2C(=O)N(c3ccc(C#N)c(C(F)(F)F)c3)C(=O)C2(C)C)cc1F | 10%
CC1(C)C(=O)N(c2ccc(C#N)c(C(F)(F)F)c2)C(=S)N1c1ccc(C(=O)O)c(F)c1 | -39%

Where these numbers come from: patent US8524755B2
